Values from patent US6943183B2

Would you mind telling me the reported IC50 of each entry?
- testedOn: SF9 affinity purified rat FPT (Rattus norvegicus, UniProt Q02293+Q04631)
- assayRemarks: PFT (FPT) inhibitory activity assay, radiolabeled farnesyl pyrophosphate and biotinyl peptide, streptavidin beads
- conditionsUsed: HEPES buffer pH 7.4, 30° C., 30 minutes; read-out: FTase IC50
Report the figure in nM without appending any unit label.

Any idea what IC50 came out for Cc1nccn1CC(Oc1ccc2c(c1CCc1ccccc1)CCCC2=O)c1ccccc1 (racemic) [Compound 63o] on SF9 affinity purified rat FPT (Rattus norvegicus, UniProt Q02293+Q04631)?
4

Any idea what IC50 came out for Cc1ccc(OCc2c(O[C@H](Cn3ccnc3)c3ccccc3)ccc3c2CCCC3=O)cn1 [Compound 82] on SF9 affinity purified rat FPT (Rattus norvegicus, UniProt Q02293+Q04631)?
9

Any idea what IC50 came out for O=C(O)CCNC(=O)c1ccc(SCc2c(O[C@H](Cn3ccnc3)c3ccccc3)ccc3c2CCCC3=O)cc1 [Compound 170] on SF9 affinity purified rat FPT (Rattus norvegicus, UniProt Q02293+Q04631)?
7

Any idea what IC50 came out for CN(C)CCNC(=O)c1cccc(SCc2c(O[C@H](Cn3ccnc3)c3ccccc3)ccc3c2CCCC3=O)c1 [Compound 178] on SF9 affinity purified rat FPT (Rattus norvegicus, UniProt Q02293+Q04631)?
8

====

Would you mind telling me the reported IC50 of each entry?
- testedOn: SF9 affinity purified rat FPT (Rattus norvegicus, UniProt Q02293+Q04631)
- assayRemarks: PFT (FPT) inhibitory activity assay, radiolabeled farnesyl pyrophosphate and biotinyl peptide, streptavidin beads
- conditionsUsed: HEPES buffer pH 7.4, 30° C., 30 minutes; read-out: FTase IC50
Report the figure in nM without appending any unit label.

I'd like to know its IC50. The compound in question is CC(=O)N(Cc1c(O[C@H](Cn2ccnc2)c2ccccc2)ccc2c1CCCC2=O)c1ccc(C)cc1 [Compound 144]
35

I'd like to know its IC50. The compound in question is Cc1ccc(C(C)C)cc1OCc1c(O[C@H](Cn2ccnc2)c2ccccc2)ccc2c1CCCC2=O [Compound 70]
7

I'd like to know its IC50. The compound in question is O=C1CCCc2c1ccc(O[C@H](Cn1ccnc1)c1ccccc1)c2C[S+]([O-])c1ccccn1 (mixture of isomers) [Compound 142]
0.55

I'd like to know its IC50. The compound in question is O=C(Nc1c(O[C@H](Cn2ccnc2)c2ccccc2)ccc2c1CCCC2=O)c1cc2ccccc2cn1 [Compound 40b]
6

I'd like to know its IC50. The compound in question is O=C1CCCc2c1ccc(O[C@H](Cn1ccnc1)c1ccc(F)cc1F)c2CS(=O)(=O)c1ccccn1 [Compound 63j]
1.5

I'd like to know its IC50. The compound in question is O=C1CCCc2c1ccc(O[C@H](Cn1ccnc1)c1ccccc1)c2CCc1cccc[n+]1[O-] [Compound 25]
5

I'd like to know its IC50. The compound in question is O=C(O)c1ccc(S(=O)(=O)Cc2c(O[C@H](Cn3ccnc3)c3ccccc3)ccc3c2CCCC3=O)cc1 [Compound 160]
10

I'd like to know its IC50. The compound in question is Nc1c(O[C@H](Cn2ccnc2)c2ccccc2)ccc2c1CCCC2=O [Compound 37a]
14

I'd like to know its IC50. The compound in question is O=C(NCCO)c1ccc(S(=O)(=O)Cc2c(O[C@H](Cn3ccnc3)c3ccccc3)ccc3c2CCCC3=O)cc1 [Compound 175]
10

I'd like to know its IC50. The compound in question is O=C1CCCc2c1ccc(O[C@H](Cn1ccnc1)c1ccccc1)c2Cc1ccccc1 [Compound 45]
2

I'd like to know its IC50. The compound in question is COc1cccc(OCc2c(O[C@H](Cn3ccnc3)c3ccccc3)ccc3c2CCCC3=O)c1 [Compound 105]
5

I'd like to know its IC50. The compound in question is O=C(NC1CC1)c1cccc(SCc2c(O[C@H](Cn3ccnc3)c3ccccc3)ccc3c2CCCC3=O)c1 [Compound 227]
0.2

I'd like to know its IC50. The compound in question is O=C1CCCc2c1ccc(O[C@H](Cn1ccnc1)c1ccccc1)c2-c1ccsc1 [Compound 35]
15

I'd like to know its IC50. The compound in question is O=C(NCCO)c1cccc(S(=O)(=O)Cc2c(O[C@H](Cn3ccnc3)c3ccccc3)ccc3c2CCCC3=O)c1 [Compound 176]
7

I'd like to know its IC50. The compound in question is C#CCNC(=O)c1cccc(SCc2c(O[C@H](Cn3ccnc3)c3ccccc3)ccc3c2CCCC3=O)c1 [Compound 213]
0.2
